Below: a set of entries, each annotated with reported Inhibition at 5 μM (%)*.
- System: TERT protein
- Test method notes: Fluorescence polarization binding assay (inhibitory activity of selected Table 9 compounds)
- Design: species or system Tribolium castaneum
- Study conditions: compound 5 μM; TERT-Chim21m complex 250 nM, cyanine 5-dCTP 10 nM; footnote: observed value corresponds to 50% of the actual inhibition value
- Description: The TERT protein was expressed and purified as described herein. Protein was concentrated to 4.72 mg ml-l using an AMICON 30K cutoff filter (Millipore) and stored at −80° C. for binding assays. […] Compound screens were carried out as 30.5 μl reactions in a 384-well, round bottom plate (Thermo). […] Fluorescence polarization was measured at λex=620 nm and λem=688 nm on an EnVision Xcite Multilabel plate reader (Perkin Elmer). […]

| Compound | Inhibition at 5 μM (%)* |
| --- | --- |
| Cc1ccc(C(=O)Nn2cnnc2)c(Cl)c1 | 10.94 |
| COc1cc(CNc2ccc3[nH]c(=O)[nH]c3c2)cc(Cl)c1OCC(N)=O | 15.94 |
| COc1cc(CNCc2cccs2)cc(Cl)c1OCC(N)=O.Cl | 10.94 |
| CNCc1cc(Cl)c(OCC(N)=O)c(OC)c1.Cl | 17.00 |
| COc1cc(CNCc2ccncc2)cc(Cl)c1OCC(N)=O.Cl | 23.05 |
| CC(C(=O)Nn1cnnc1)N1C(=O)c2ccccc2C1=O (stereo not drawn) | 4.74 |
